# System: Rattus norvegicus
# experimentDescription: In vivo sterol lowering activity at dose of 0.10 % of the diet
# Type: functional
So I've got a bunch of compounds here, and I need their serum sterol level, percent of control values.
All answers are understood in %, so give the number only.

Problem: Give serum sterol level, percent of control for the following compound: CCCCCCCCCCCCCCCCNc1cc(C(=O)[O-])cc(C(=O)[O-])c1.[Na+].[Na+]
Result: 90

Problem: Give serum sterol level, percent of control for the following compound: CCCCCCCCCCCCCCCCNc1ccc(C(C#N)O[Si](C)(C)C)cc1 (configuration not stated)
Result: 82

Problem: Give serum sterol level, percent of control for the following compound: CCCCCCCCCCCCCCCCN(C(C)=O)c1ccc(C(=O)OCC(O)COC(C)=O)cc1 (configuration not stated)
Result: 97

Problem: Give serum sterol level, percent of control for the following compound: CCCCCCCCCCCCCCCCNc1ccc(C(=O)CC#N)cc1
Result: 115

Problem: Give serum sterol level, percent of control for the following compound: CCCCCCCCCCCCCCCCNc1ccc(C(=O)OCC2COC(C)(C)O2)cc1 (configuration not stated)
Result: 86

Problem: Give serum sterol level, percent of control for the following compound: CCCCCCCCCCCCCCCCN(CC(=O)OCC)c1ccc(C(=O)OC)cc1
Result: 104

Problem: Give serum sterol level, percent of control for the following compound: CCCCCCCCCCCCCCCCNc1csc(C(=O)O)c1
Result: 98

Problem: Give serum sterol level, percent of control for the following compound: CCCCCCCCCCCCCCCCNc1ccc(-c2nn[nH]n2)cc1
Result: 89

Problem: Give serum sterol level, percent of control for the following compound: CCCCCCCCCCCCCCCCNc1ccc(C(=O)CC(=O)O)cc1
Result: 104

Problem: Give serum sterol level, percent of control for the following compound: CCCCCCCCCCCCCCCCNc1ccc(C(=O)[O-])c(C(=O)[O-])c1.[Na+].[Na+]
Result: 101

Problem: Give serum sterol level, percent of control for the following compound: CCCCCCCCCCCCCCCCNc1ccc(SCC(=O)OCC)cc1
Result: 99

Problem: Give serum sterol level, percent of control for the following compound: CCCCCCCCCCCCCCN(C(C)=O)c1ccc(C(=O)O)cc1
Result: 91

Problem: Give serum sterol level, percent of control for the following compound: CCCCCCCCCCCCCCCCNc1ccc(C(SCC)SCC)cc1
Result: 88

Problem: Give serum sterol level, percent of control for the following compound: CCCCCCCCCCCCCCCCN(C)c1ccc(C(=O)O)cc1
Result: 85

Problem: Give serum sterol level, percent of control for the following compound: CCCCCCCCCCCCCCCCN(C(C)=O)c1ccc(C(=O)OCC(COC(C)=O)OC(C)=O)cc1 (configuration not stated)
Result: 101

Problem: Give serum sterol level, percent of control for the following compound: CCCCCCCCCCCCCCCCNc1ccc(C(=O)Nc2ccc(C(=O)O)cc2)cc1
Result: 100
